assay: label from the status in PepcDB records
METRIC: protein production

MYLLNDKVAHELKKPFGKVYKELPSIEGKVVSIGDVTTKHLLSNGIIPDLSILDFKTKRNIPVDIPHKFKTIFEVENPQGCISDEAIERIKYLSTIHDRDMALIIKGEEDLLTIPVIKYFPEDTSVIYGQPDEGMVLLKITDELKQKIEKLLKEMEER = failed
DFNPEIFQLESYFKSKYHLKDIEIVSSRKDSDTSEIEKDLAHVAAAMIRKKIKENDKVGIAWGRTLSKVVEAMRPHPVSQVSFVPLAGGPSHINARYHVNTLVYEMSRRFQGSCTFINATLVQENANLAKGILTSKYFEGLMDNWEKLDVAIVGVGGKPKSNEQQWLDLLNQDDFQCLDEEAAVGEITCRFFNHSGDPVNQHLAKRTIGITLEQLQKVPNRIAVAHGNYKAAALLAVLKKGYINHLVTDFSTALNILRLDKDTFVDTIYQKS = failed
MNKHFLETLLQKHQQAGTFPSTSDICRLVTRILLVLFPEQTQAKYKDVADVEIQMGVYQKELTRLLGSMQKDLPAPANELSDAFMNELSVIYDKLLLDIQAILNGDPAARSEFEVIRAYPGFYAIAFYRMAHALYKLNIPLMPRIIMEYAHSKTGIDIHPGATIGKNFYIDHGTGIVIGETAHIGDNVKVYQGVTLGALSVSKDKADTKRHPTIEDNVIIYSGATILGGKTVVGHDSIIGGNVWLTESVQPFTRVYHKAQIEVIIKNADPSLNETENNEEAIRKMKKAESENTKKNS = failed
MASVKLPWDLEEEILSRLPPRSLVRFRTVCKHWNGLFSDKRFVKKHLVRARPQFIFLTESKKMYSIEIDLGGTIEVREVPYDFHCQPMKKNFTTIMACDGLLFRDFWKQGVAVWNPWLRQVGWIEYEDKGFRFCGVGYDSCKPDKCYKILGYFNCTRRLSDSLQEGYYQAAIYECASQAFKFIDTPNPFNLWPNKDPLSVNGNLYWLAHNHPETLEYFIETFDFSMEIFKPFCLLPCRKDFGSNELVLAVFKEDRFSLLKQCFETTKIEIWVTKMKIDREEEVVWIKFMTLPTTNLPNLDDTYCCSSYFIFDKTIIMCCGDYKTGATCIYMVRGDMFKKIQINSGIFQFSYCVYLPNLISVPFESHQV = failed
YRSKGEYHELLANHVAELSKLQNVLYADNRYAILLIFQAMDAAGKDSAIKHVMSGVNPQGCQVYSFKHPSATELEHDFLWRTNCVLPERGRIGIFNRSYYEEVLVVRVHPEILEMQNIPHNLAHNGKVWDHRYRSIVSHEQHLHCNGTRIVKFYLHLSKEEQRKRFLERIDDPNKNWKFSTADLEERKFWDQYMEAYESCLQETSTKDSPWFAVPADDKKNARLIVSRIVLDTLESLNLKYP = failed
MDSDETGFEHSGLWVSVLAGLLLGACQAHPIPDSSPLLQFGGQVRQRYLYTDDAQQTEAHLEIREDGTVGGAADQSPESLLQLKALKPGVIQILGVKTSRFLCQRPDGALYGSLHFDPEACSFRELLLEDGYNVYQSEAHGLPLHLPGNKSPHRDPAPRGPARFLPLPGLPPALPEPPGILAPQPPDVGSSDPLSMVGPSQGRSPSYAS = failed
